biological target: T1, recombinant mouse TfR1 (transferrin receptor 1) (mouse, UniProt Q62351 89-763); test: phage ELISA
T1 construct: Bought recombinant His-tagged protein; also called mTfR1
T1 sequence (Q62351 89-763 limits assumed): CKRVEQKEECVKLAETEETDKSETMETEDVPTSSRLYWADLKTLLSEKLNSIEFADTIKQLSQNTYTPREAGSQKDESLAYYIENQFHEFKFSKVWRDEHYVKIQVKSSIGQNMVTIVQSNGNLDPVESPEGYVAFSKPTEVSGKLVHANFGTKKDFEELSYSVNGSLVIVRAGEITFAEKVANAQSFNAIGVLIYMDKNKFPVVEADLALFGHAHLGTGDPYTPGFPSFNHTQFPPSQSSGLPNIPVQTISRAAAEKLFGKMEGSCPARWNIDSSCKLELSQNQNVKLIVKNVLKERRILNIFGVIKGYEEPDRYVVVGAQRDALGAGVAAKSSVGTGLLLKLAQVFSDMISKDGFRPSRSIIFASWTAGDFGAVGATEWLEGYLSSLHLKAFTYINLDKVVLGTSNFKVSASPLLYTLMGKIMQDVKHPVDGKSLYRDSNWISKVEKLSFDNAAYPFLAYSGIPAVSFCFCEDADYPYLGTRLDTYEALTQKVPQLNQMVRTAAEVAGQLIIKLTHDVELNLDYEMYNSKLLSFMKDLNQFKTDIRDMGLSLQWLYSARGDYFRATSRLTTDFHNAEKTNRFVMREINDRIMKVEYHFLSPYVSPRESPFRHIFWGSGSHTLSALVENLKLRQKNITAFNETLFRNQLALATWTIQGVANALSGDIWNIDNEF
measurement-type: binding result

# binder, measurement-type, assay-result
records = [
    ("SEQ ID NO 17 (VNAR clone displayed on phage) (VNAR, shark VNAR domain on M13 phage; coat-protein fusion not described) VNAR: ARVDQTPQTITKETGESLTINCVLRDSNCALPSTYWYRKKSGSTNEESISKGGRYVETVNSGSKSFSLRINDLTVKDSGTYRCNVARHWTQSCAYHRDVYGGGTAVTVNA", "binding result", "binds"),
    ("SEQ ID NO 32 (VNAR clone displayed on phage) (VNAR, shark VNAR domain on M13 phage; coat-protein fusion not described) VNAR: ARVDQTPQTITKETGESLTINCVLRDSNCALSNLYWYRKKSGSRNEESISKGGRYVETVNSGSKSFSLKINDLTVEDSGTYRCKVFGMRTHCQWVIYRITDVYGGGTAVTVNA", "binding result", "binds"),
]

Hey, just so you know, these numbers are from patent US20220031857A1.
